Here, each record is paired with measured IC50 data.
target: α-amylase (AA) type VI-B from porcine pancreas (Sus scrofa, UniProt P00690); test: AA inhibition assay; settings: α-Amylase IC50 (µM), evaluated range 6.25 µM–1000 µM; mean of n = 3 ± SD
Sequence (P00690 16-511): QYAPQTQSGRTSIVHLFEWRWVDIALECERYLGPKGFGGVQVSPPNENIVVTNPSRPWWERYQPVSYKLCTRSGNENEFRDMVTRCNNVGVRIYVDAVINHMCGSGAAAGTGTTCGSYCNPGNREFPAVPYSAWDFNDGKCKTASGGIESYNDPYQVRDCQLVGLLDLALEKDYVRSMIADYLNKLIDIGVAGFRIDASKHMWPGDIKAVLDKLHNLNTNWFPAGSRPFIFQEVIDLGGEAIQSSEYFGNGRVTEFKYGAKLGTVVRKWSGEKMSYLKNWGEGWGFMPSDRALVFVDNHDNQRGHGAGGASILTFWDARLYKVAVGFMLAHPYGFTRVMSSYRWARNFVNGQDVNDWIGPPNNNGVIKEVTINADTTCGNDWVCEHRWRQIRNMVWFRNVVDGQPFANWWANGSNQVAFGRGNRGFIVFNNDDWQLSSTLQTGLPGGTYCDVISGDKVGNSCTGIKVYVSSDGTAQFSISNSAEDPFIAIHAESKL
Answer format: numeric, µM implied, no suffix.

// known answers, use as guide
- Sample smiles: "COc1c(O)cc2oc3cc(O)c(CC=C(C)C)c(O)c3c(=O)c2c1CC=C(C)C"
  Target entity: "α-amylase (AA) type VI-B from porcine pancreas (Sus scrofa, UniProt P00690)"
  IC50 (µM): 318
- Sample smiles: "COc1cc2oc3cc(OC)c(OC)c(CC=C(C)C)c3c(=O)c2c(O)c1CC=C(C)C"
  Target entity: "α-amylase (AA) type VI-B from porcine pancreas (Sus scrofa, UniProt P00690)"
  IC50 (µM): 164

For the next question, use this compound.
Sample CC(C)=CCc1c(O)c(CC=C(C)C)c2oc3c(O)cccc3c(=O)c2c1O ; IC50 observed: 166
